Experiment: gradient 5% acetonitrile 3 min, to 50% in 2 min, to 85% in 15 min, held 3 min, 100 µL/min
Conditions: column: Zorbax Extend-C18 2.1 x 50 mm; eluents: water / acetonitrile, 0.1% formic acid
Use Met when the recorded RP-LC retention time is no lower than 800 s; use Not met when it is lower.

Record excerpt, results attached:
>  <compound>
Cc1cccn2c(=O)cc(CN(C)Cc3ccc(Cl)cc3)nc12

>  <classification>
Not met

$$$$
>  <compound>
Cc1cc(=O)oc2c3c(cc(OCC(=O)N[C@@H](C(=O)O)C(C)C)c12)OC(C)(C)CC3

>  <classification>
Met

$$$$
>  <compound>
Cc1nn(-c2ccc(N3CCCC3)nn2)c(C)c1CCC(=O)N1CCN(c2ccccn2)CC1

>  <classification>
Not met

$$$$
>  <compound>
COCc1cc(=O)n(CC(=O)Nc2cc(C)ccc2C)c(N2CCOCC2)n1

>  <classification>
Met

$$$$
>  <compound>
CN1C(=O)c2cccn2CC1CNC(=O)c1[nH]nc2c1COc1ccccc1-2 (stereo not given)

>  <classification>
Not met

$$$$

Challenge: Given O=C(NCC(O)c1ccsc1)NC1CCCCC1 (stereo not given) , state whether its RP-LC retention time is at least 800 s.
Response given: Not met

Challenge: Given Cc1ccc(-c2nc(NCCC3=CCCCC3)c3ccccc3n2)cc1 , state whether its RP-LC retention time is at least 800 s.
Response given: Met

Challenge: Given O=C(NCc1cnoc1-c1ccc(F)cc1)c1ccccc1 , state whether its RP-LC retention time is at least 800 s.
Response given: Met

###

Experiment: gradient 5% acetonitrile 3 min, to 50% in 2 min, to 85% in 15 min, held 3 min, 100 µL/min
Settings: column: Zorbax Extend-C18 2.1 x 50 mm; eluents: water / acetonitrile, 0.1% formic acid
Grouping key: RP-LC retention time. Bins: Low: < 700 s; Medium: ≥ 700 s and < 900 s; High: ≥ 900 s

Record excerpt, results attached:
>  <compound>
Cc1nc2ccc3nc(NC(=O)c4snnc4C)sc3c2s1

>  <classification>
Medium

$$$$
>  <compound>
CC(C)c1ccc(S(=O)(=O)NCC(c2cccnc2)c2c[nH]c3ccccc23)cc1 (centres undefined)

>  <classification>
Medium

$$$$
>  <compound>
Cc1ccc(CCC(=O)Nc2nc(-c3ccc4c(c3)NC(=O)C(C)O4)cs2)cc1 (centres undefined)

>  <classification>
High

$$$$
>  <compound>
COC(=O)C1=C(C)N(C2CCCC2)C(=O)C1(NC(=O)c1ccccc1OC)C(F)(F)F (centres undefined)

>  <classification>
High

$$$$

Challenge: Record COC(=O)Cn1c(C2CC(=O)N(c3cc(Cl)ccc3OC)C2)nc2ccccc21 (centres undefined) — which class?
Response given: Medium

Challenge: Record COc1ccccc1CC(=O)N1CCCC1c1c(C)noc1C (centres undefined) — which class?
Response given: Medium

Challenge: Record O=C(NCc1ccco1)c1nc(Nc2ccc(F)cc2)c2ccccc2n1 — which class?
Response given: Medium

Challenge: Record COc1cc(Cl)c(C)cc1NC(=O)Cn1ncc2c(N3CCN(c4ccccn4)CC3)ncnc21 — which class?
Response given: Low

Challenge: Record CN(C)c1ccc(C(=O)NCCCCCCC(=O)NO)cc1 — which class?
Response given: Low

Challenge: Record Cc1cc(C)cc(NC(=O)Cc2csc3nc(-c4cccc(Cl)c4)cn23)c1 — which class?
Response given: High

meta.source: the METLIN SMRT retention time set (Domingo-Almenara et al. 2019)
